assay: Cynomolgus monkey pharmacokinetic study; format: in vivo; conditions: plasma; cynomolgus monkey, male, 3 mg/kg, po; read-out: Cmax
measured_parameter: Cmax

1. C=CC(=O)N1CCN(c2nc(=O)n(-c3c(C)ccnc3C(C)C)c3nc(-c4c(O)cccc4F)c(F)cc23)[C@@H](C)C1 [Amg-510, reference compound]: 133 ng/mL

----------
assay: Cynomolgus monkey pharmacokinetic study; type: in vivo; conditions: plasma; cynomolgus monkey, male, 1 mg/kg, iv; read-out: VSS
measured_parameter: Vd (L/kg)

1) C=CC(=O)N1CCN(c2nc(=O)n(-c3c(C)ccnc3C(C)C)c3nc(-c4c(O)cccc4F)c(F)cc23)[C@@H](C)C1 [Amg-510, reference compound]: 0.775

----------
Listing of recorded pIC50 by entry.
molecular target: HIS-KRAS(G12C) (Homo sapiens (Human), UniProt P01116, G12C); test: SOS1 catalyzed nucleotide exchange assay (TR-FRET); conditions: GDP-loaded HIS-KRAS(G12C), 1 hour pre-incubation, TR-FRET
Sequence (P01116 other isoform, or with tags, fused parts or gaps G12C): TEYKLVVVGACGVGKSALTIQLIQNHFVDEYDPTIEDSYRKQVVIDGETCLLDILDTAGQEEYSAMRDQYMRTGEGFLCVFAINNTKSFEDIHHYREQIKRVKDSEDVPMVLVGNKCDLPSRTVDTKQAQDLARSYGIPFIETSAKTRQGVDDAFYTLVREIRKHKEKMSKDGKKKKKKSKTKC
pIC50: −log10 of the molar value.
measured_parameter: pIC50

1. C=CC(=O)N1[C@H](C)CN(c2nc(=O)n(-c3c(C)ccnc3C(C)C)c3nc(-c4c(N)c(F)c(F)c(F)c4F)c(F)cc23)C[C@@H]1C (single isomer, unassigned) [Compound 5-1]: 8.48
2. C=CC(=O)N1[C@H](C)CN(c2nc(=O)n(-c3c(C)ccnc3C(C)C)c3nc(-c4c(F)c(F)c(F)c(N)c4Cl)c(F)cc23)C[C@@H]1C [Compound 7]: 7.76
3. C=CC(=O)N1CCN(c2nc(=O)n(-c3c(C)ccnc3C(C)C)c3nc(-c4c(N)c(F)c(F)c(F)c4F)c(F)cc23)C[C@H]1C [Compound 4]: 7.99
4. C=CC(=O)N1CCN(c2nc(=O)n(-c3c(C)ccnc3C(C)C)c3nc(-c4c(N)c(F)c(F)c(F)c4F)c(F)cc23)[C@@H](C)C1 (atropisomer, axis not shown; (M)) [Compound 2-1]: 8.92
5. C=CC(=O)N1CCN(c2nc(=O)n(-c3c(C)ccnc3C(C)C)c3nc(-c4c(N)c(F)c(F)c(F)c4F)c(F)cc23)C[C@H]1C (single isomer, unassigned) [Compound 4-1]: 8.48
6. C=CC(=O)N1CCN(c2nc(=O)n(-c3c(C)ccnc3C(C)C)c3nc(-c4c(F)c(F)c(F)c(N)c4Cl)c(F)cc23)[C@@H](C)C1 [Compound 1]: 8.14
7. C=CC(=O)N1CCN(c2nc(=O)n(-c3c(C)ccnc3C(C)C)c3nc(-c4c(N)c(F)c(F)c(F)c4F)c(F)cc23)CC1 (single isomer, unassigned) [Compound 3-2]: 6.63
8. C=CC(=O)N1CCN(c2nc(=O)n(-c3c(C)ccnc3C(C)C)c3nc(-c4c(F)c(F)c(F)c(N)c4Cl)c(F)cc23)[C@@H](C)C1 (single isomer, unassigned) [Compound 1-2]: 6.92
9. C=CC(=O)N1CCN(c2nc(=O)n(-c3c(C)ccnc3C(C)C)c3nc(-c4c(F)c(F)c(F)c(N)c4Cl)c(F)cc23)C[C@H]1C [Compound 6]: 7.40
10. C=CC(=O)N1CCN(c2nc(=O)n(-c3c(C)ccnc3C(C)C)c3nc(-c4c(N)c(F)c(F)c(F)c4F)c(F)cc23)CC1 [Compound 3]: 8.26
11. C=CC(=O)N1[C@H](C)CN(c2nc(=O)n(-c3c(C)ccnc3C(C)C)c3nc(-c4c(F)c(F)c(F)c(N)c4Cl)c(F)cc23)C[C@@H]1C (single isomer, unassigned) [Compound 7-1]: 8.18

----------
assay: Dog pharmacokinetic study; format: in vivo, beagle dog; details: plasma; beagle dog, male, 3 mg/kg, po; read-out: Oral BA (F %)
measured_parameter: bioavailability

1. C=CC(=O)N1CCN(c2nc(=O)n(-c3c(C)ccnc3C(C)C)c3nc(-c4c(O)cccc4F)c(F)cc23)[C@@H](C)C1 [Amg-510, reference compound]: 84.4%

----------
assay: Dog pharmacokinetic study; type: in vivo, beagle dog; conditions: plasma; beagle dog, male, 1 mg/kg, iv
measured_parameter: clearance (mL/min/kg)

1) C=CC(=O)N1CCN(c2nc(=O)n(-c3c(C)ccnc3C(C)C)c3nc(-c4c(O)cccc4F)c(F)cc23)[C@@H](C)C1 [Amg-510, reference compound]: 21.1

----------
assay: Dog pharmacokinetic study; type: in vivo, beagle dog; settings: plasma; beagle dog, female, 3 mg/kg, po; read-out: Cmax
measured_parameter: Cmax (ng/mL)

1) C=CC(=O)N1CCN(c2nc(=O)n(-c3c(C)ccnc3C(C)C)c3nc(-c4c(O)cccc4F)c(F)cc23)[C@@H](C)C1 [Amg-510, reference compound]: 450

----------
experiment: Mouse pharmacokinetic study; assay type: in vivo, Balb/c mouse; details: plasma; Balb/c mouse (female), 10 mg/kg, po; read-out: Oral BA (F %)
measured_parameter: bioavailability (%)

1) C=CC(=O)N1CCN(c2nc(=O)n(-c3c(C)ccnc3C(C)C)c3nc(-c4c(N)c(F)c(F)c(F)c4F)c(F)cc23)[C@@H](C)C1 [Compound 2]: 44.7
2) C=CC(=O)N1CCN(c2nc(=O)n(-c3c(C)ccnc3C(C)C)c3nc(-c4c(O)cccc4F)c(F)cc23)[C@@H](C)C1 [Amg-510, reference compound]: 43.9

----------
The following compounds are listed with their measured IC50 values.
molecular target: HIS-KRAS(G12C) (Homo sapiens (Human), UniProt P01116, G12C); experiment: SOS1 catalyzed nucleotide exchange assay (TR-FRET); settings: GDP-loaded HIS-KRAS(G12C), 1 hour pre-incubation, TR-FRET
measured_parameter: IC50 (nM)

1) C=CC(=O)N1CCN(c2nc(=O)n(-c3c(C)ccnc3C(C)C)c3nc(-c4c(F)c(F)c(F)c(N)c4Cl)c(F)cc23)[C@@H](C)C1 (single isomer, unassigned) [Compound 1-1]: 4.08
2) C=CC(=O)N1[C@H](C)CN(c2nc(=O)n(-c3c(C)ccnc3C(C)C)c3nc(-c4c(N)c(F)c(F)c(F)c4F)c(F)cc23)C[C@@H]1C (single isomer, unassigned) [Compound 5-2]: 96.1
3) C=CC(=O)N1CCN(c2nc(=O)n(-c3c(C)ccnc3C(C)C)c3nc(-c4c(N)c(F)c(F)c(F)c4F)c(F)cc23)CC1 (single isomer, unassigned) [Compound 3-1]: 3.14

----------
test: Dog pharmacokinetic study; type: in vivo, beagle dog; conditions: plasma; beagle dog, female, 3 mg/kg, po; read-out: Oral BA (F %)
measured_parameter: bioavailability (%)

1) C=CC(=O)N1CCN(c2nc(=O)n(-c3c(C)ccnc3C(C)C)c3nc(-c4c(O)cccc4F)c(F)cc23)[C@@H](C)C1 [Amg-510, reference compound]: 16.4

----------
Below, each of the compounds is paired with its reported clearance value.
Test: Mouse pharmacokinetic study
Assay type: in vivo, Balb/c mouse
Settings: plasma; Balb/c mouse (female), 3 mg/kg, iv
Protocol: The purpose of this study was to evaluate the pharmacokinetic properties of compounds in Balb/c mouse (♀) following single dose administration. The day before administration, mice were fasted overnight and free access to water. […] The concentration of compound in plasma samples was determined using a LC-MS/MS method.
measured_parameter: clearance (mL/min/kg)

1) C=CC(=O)N1CCN(c2nc(=O)n(-c3c(C)ccnc3C(C)C)c3nc(-c4c(N)c(F)c(F)c(F)c4F)c(F)cc23)[C@@H](C)C1: 65.2
2) C=CC(=O)N1CCN(c2nc(=O)n(-c3c(C)ccnc3C(C)C)c3nc(-c4c(O)cccc4F)c(F)cc23)[C@@H](C)C1 [Amg-510, reference compound]: 40.5

----------
Reported values of Vd for individual entries
assay: Mouse pharmacokinetic study; format: in vivo, Balb/c mouse; conditions: plasma; Balb/c mouse (female), 3 mg/kg, iv; read-out: Vss
measured_parameter: Vd (L/kg)

1) C=CC(=O)N1CCN(c2nc(=O)n(-c3c(C)ccnc3C(C)C)c3nc(-c4c(N)c(F)c(F)c(F)c4F)c(F)cc23)[C@@H](C)C1: 2.31
2) C=CC(=O)N1CCN(c2nc(=O)n(-c3c(C)ccnc3C(C)C)c3nc(-c4c(O)cccc4F)c(F)cc23)[C@@H](C)C1 [Amg-510, reference compound]: 1.64

----------
assay: Cynomolgus monkey pharmacokinetic study; type: in vivo; details: plasma; cynomolgus monkey, female, 3 mg/kg, po; read-out: Oral BA (F %)
measured_parameter: bioavailability (%)

1. C=CC(=O)N1CCN(c2nc(=O)n(-c3c(C)ccnc3C(C)C)c3nc(-c4c(O)cccc4F)c(F)cc23)[C@@H](C)C1 [Amg-510, reference compound]: 41.3

----------
assay: Dog pharmacokinetic study; type: in vivo, beagle dog; details: plasma; beagle dog, female, 3 mg/kg, po; read-out: AUC0-24h
measured_parameter: AUC(0-t) (ng·h/mL)

1. C=CC(=O)N1CCN(c2nc(=O)n(-c3c(C)ccnc3C(C)C)c3nc(-c4c(O)cccc4F)c(F)cc23)[C@@H](C)C1 [Amg-510, reference compound]: 404
